Values from patent US20220153746A1

# run description: TD Phase (Groups 1 and 3): plasma and ocular tissue concentrations and pharmacokinetics of Compound 18 and its metabolite Compound 4 after once daily ocular instillation of Compound 18 nanosuspension for 7 days
# Type: in vivo, New Zealand white rabbits
# condition details: male, New Zealand white, rabbit, topical or ocular, 0.8 mg/kg/day; plasma, Day 7, from mean concentrations
value type: Tmax (min)

1) CCCc1nn(C)c2c(=O)[nH]c(-c3cc(S(=O)(=O)N4CC(CCCO)C4)ccc3OCC)nc12 [Compound 4]
30
2) CCCc1nn(C)c2c(=O)[nH]c(-c3cc(S(=O)(=O)N4CC(CCCO[N+](=O)[O-])C4)ccc3OCC)nc12 [Compound 18]
30
